From: PubChem BioAssay

- TARGET: L-lactate dehydrogenase (Plasmodium falciparum (isolate CDC / Honduras)) (UniProt Q27743)
- Sequence (Q27743 whole entry, looked up): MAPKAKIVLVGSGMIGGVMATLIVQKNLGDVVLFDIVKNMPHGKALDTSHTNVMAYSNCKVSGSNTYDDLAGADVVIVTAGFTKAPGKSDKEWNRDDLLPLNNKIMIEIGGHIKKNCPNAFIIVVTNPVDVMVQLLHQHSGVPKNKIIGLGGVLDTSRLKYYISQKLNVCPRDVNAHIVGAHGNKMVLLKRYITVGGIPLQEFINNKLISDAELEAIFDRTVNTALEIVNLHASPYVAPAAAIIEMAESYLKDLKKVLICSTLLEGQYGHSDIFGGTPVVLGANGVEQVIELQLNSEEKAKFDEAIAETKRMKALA
- ASSAY PROCEDURE: PfLDH activity inhibition – cell lysate, 3D7 strain, counter-screen for P. falciparum growth inhibition project (AID 2304);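 further: 0% = vehicle and 100% = reference inhibitor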
- CONDITION SUMMARY: P. falciparum 3D7 crude extract, LDH APAD/NBT absorbance; at 2 µM; active compounds read high
The source made the active and inactive calls. How the calls were made is not given here.
Below, each of the molecules is paired with its reported inhibition value.

# MOLECULE, inhibition
measured = [
    ("C#CCNCc1ccc(-c2ccc(-c3nc4ccc(C(F)(F)F)cc4[nH]3)s2)cc1", "0% (inactive)"),
    ("C[C@@H]1CN(c2cnn(Cc3ccc(NC(=O)Nc4cccc(C(F)(F)F)c4)cc3)c(=O)c2Cl)C[C@H](C)N1", "-7% (inactive)"),
    ("CC(=O)Nc1ccc(C(=O)NC2CCN(c3ccnc4cc(Cl)ccc34)CC2)cc1", "-4% (inactive)"),
    ("Cc1nc2ccc(NC(=O)Nc3ccnc4ccc(C(F)(F)F)cc34)cc2o1", "-7% (inactive)"),
    ("O=C(NCCCCCN1CCCN(C(=O)Nc2ccc(F)c(C(F)(F)F)c2)CC1)[C@@H]1C[C@H]1c1ccc(Cl)c(Cl)c1", "2% (inactive)"),
    ("Cc1ccc(-c2ccn(Cc3cccc(OCc4ccccc4)c3)n2)cn1 (tested in a mixture with another compound)", "0% (inactive)"),
    ("Cc1c(Cl)ccc2sc(N3CCN(C(=O)c4ccc([N+](=O)[O-])o4)CC3)nc12", "3% (inactive)"),
    ("CCNc1cc(C(=O)N[C@@H](Cc2ccccc2)[C@H](O)CNC(C)(C)Cc2cccc(OC)c2)cc(N2CCCC2=O)c1", "-8% (inactive)"),
]
